studyTarget: T1, Human Id2: Histidine (human, UniProt Q02363 1-134, limits assumed)
T1 construct: Fusion protein made in E. coli from vector pGW07; also called h-Id2: His; not shown: His tag
T1 sequence (looked up): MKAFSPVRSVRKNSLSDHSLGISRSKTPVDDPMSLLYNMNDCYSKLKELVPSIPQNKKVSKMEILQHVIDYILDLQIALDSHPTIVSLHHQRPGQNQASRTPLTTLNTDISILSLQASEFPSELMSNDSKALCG
procedureText: ELISA, Ab 0.025 µg/ml
Each entry below carries its recorded A450.
Hi! Could you send only the number? It should be in A450, unit omitted.

Previously resolved entries follow.
QUERY: I'd like to know its A450. The binder in question is rabbit monoclonal anti-mouse/human Id3, clone #BCH-4/#16-1 (antibody, V domains shown, Rabbit IgG from a rabbit hybridoma; also called m/h Id3 MoAb 16-1) VH: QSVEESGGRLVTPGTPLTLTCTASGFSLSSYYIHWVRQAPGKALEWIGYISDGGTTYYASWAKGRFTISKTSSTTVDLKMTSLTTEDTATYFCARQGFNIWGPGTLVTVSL VL: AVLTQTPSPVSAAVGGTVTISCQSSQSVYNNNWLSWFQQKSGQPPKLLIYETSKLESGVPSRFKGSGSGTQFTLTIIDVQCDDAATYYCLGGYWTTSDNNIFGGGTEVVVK
RESULT: 0.045

QUERY: Can you share its A450? I mean this binder: rabbit monoclonal anti-mouse/human Id3, clone #BCH-4/#17-3 (antibody, V domains shown, Rabbit IgG from a rabbit hybridoma; also called m/h Id3 MoAb 17-3; BCH-3/#17-3) VH: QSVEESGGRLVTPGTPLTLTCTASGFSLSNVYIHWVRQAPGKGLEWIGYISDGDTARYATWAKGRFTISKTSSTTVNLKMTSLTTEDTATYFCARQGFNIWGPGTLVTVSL VL: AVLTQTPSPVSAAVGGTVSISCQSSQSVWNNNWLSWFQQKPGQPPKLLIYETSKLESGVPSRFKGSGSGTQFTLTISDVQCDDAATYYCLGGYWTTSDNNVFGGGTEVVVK
RESULT: 0.054

QUERY: Name the recorded A450 for rabbit monoclonal anti-mouse/human Id3, clone #BCH-4/#42-1 (antibody, V domains shown, Rabbit IgG from a rabbit hybridoma; also called m/h Id3 MoAb 42-1) VH: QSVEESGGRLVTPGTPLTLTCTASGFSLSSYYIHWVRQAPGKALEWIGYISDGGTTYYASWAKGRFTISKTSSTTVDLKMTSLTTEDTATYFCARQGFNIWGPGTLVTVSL VL: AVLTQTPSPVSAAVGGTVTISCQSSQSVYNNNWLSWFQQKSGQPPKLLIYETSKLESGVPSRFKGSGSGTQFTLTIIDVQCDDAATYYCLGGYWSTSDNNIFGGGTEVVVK .
RESULT: 0.071

Could you now look at the following binder, please?
QUERY: Field request: A450 | item: rabbit monoclonal anti-mouse/human Id3, clone #BCH-4/#6-1 (antibody, V domains shown, Rabbit IgG from a rabbit hybridoma; also called m/h Id3 MoAb 6-1) VH: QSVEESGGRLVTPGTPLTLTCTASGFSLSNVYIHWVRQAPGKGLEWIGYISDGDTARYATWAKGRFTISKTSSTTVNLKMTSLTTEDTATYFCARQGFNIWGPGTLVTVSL VL: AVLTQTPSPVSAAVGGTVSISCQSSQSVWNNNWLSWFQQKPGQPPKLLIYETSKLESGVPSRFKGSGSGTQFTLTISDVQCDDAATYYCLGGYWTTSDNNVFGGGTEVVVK
RESULT: 0.045

All values here come from patent US20070178531A1.
